B1: LINE1-full (parent)
chain: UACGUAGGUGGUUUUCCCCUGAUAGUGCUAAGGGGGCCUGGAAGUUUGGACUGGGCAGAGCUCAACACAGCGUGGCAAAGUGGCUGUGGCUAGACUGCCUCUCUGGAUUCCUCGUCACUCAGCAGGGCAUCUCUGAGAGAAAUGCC

# Variants of: B1
# assayProcedure: self-cleavage, relative activity (ratio to wild type); higher = more cleavage; in vitro, sequencing; the parent is a self-cleaving ribozyme
measuredParameter: self-cleavage
Write the value as a bare number.

Example entries and their recorded answers appear below.
UACGUUGGUGGUUUUCCCCUGAUAGUGCUAAGGGGGCCUGGAAGUUUGGACUGGGCAGAGCUCAACACAGCGUGGCAAAGUGGCUGUGGCUAGACUGCCUCUCUGGAUUCCUCAUCACUCAGCAGGGCAUCUCUGAGAGAAAUGCC	0
UACGUAGGUGGUUUACCCCUGAUAGUGCUAAGGGGGCCUGGAAGUUUGGACUGGGCAGAGCUCAACACAGCGUGGCAAAGUGGCUGUGGCUAGACUGCCUCUCUGGAUUCCCCGUCACUCAGCAGGGCAUCUCUGAGAGAAAUGCC	1.51
UACGUAGGUGGUUUUCGCCUGAUAGUGCUAAGGGGGCCUGGAAGUUUGGACCGGGCAGAGCUCAACACAGCGUGGCAAAGUGGCUGUGGCUAGACUGCCUCUCUGGAUUCCUCGUCACUCAGCAGGGCAUCUCUGAGAGAAAUGCC	1.22

Identify the reported self-cleavage for the following entry. "UACGUAGGUGGUUUUCCCCUGAUAGUGCUAAGGGGGCCUGGAAGUUUGGACUGGGCAGAGCUCGACACAGCGUGGCAAAGUGGCUGUGGCUAGACUGCCUCCCUGGAUUCCUCGUCACUCAGCAGGGCAUCUCUGAGAGAAAUGCC"
0.34

Identify the reported self-cleavage for the following entry. "UACGUAGGUGGUUUUCCCCUGAUAGUGCUAAGGGGGCCAGGAAGUUUGGACUGGGCAGAGCUCUACACAGCGUGGCAAAGUGGCUGUGGCUAGACUGCCUCUCUGGAUUCCUCGUCACUCAGCAGGGCAUCUCUGAGAGAAAUGCC"
0.47

Identify the reported self-cleavage for the following entry. "UACGUAGGUGGUUUUCCCCUGAUAGUGCUAAGGGGGCCUGGAAGUUUGGACUGGGCAGAGCUCAACACAGCGUGGCAAAGUGGCUGUGGCUAGACUGCCUCACUGGAUUCCUCGUCACUCAGCAGGGCAUCUCUGAGGGAAAUGCC"
1.62

Identify the reported self-cleavage for the following entry. "UACGUAGGUGGUUUUCCCCUGAUAGUGCUAAGGGGGCCUGGAAGUUUGGACUGGGCAGAGCUCAACACAGCGUGGCAAAGUGGCUGUGGCUAGACUGCCCCUCUGGAUUCCUCGUCACUCAGCAGGGCAUCUCUGAGAGAAAUGCA"
1.75
